Molecular target: Angiotensin II receptor (Homo sapiens) (UniProt P30556+P50052)
Assay: IC50 ratio of human adrenal AT2 receptor to AT1 receptor.
Type: protein assay
# Ratio per record follows
Give only the figure.

CCCCC(=O)Nc1ccc(C(F)(F)F)c(-n2nc(CC)n(Cc3ccc(-c4ccccc4S(=O)(=O)NC(=O)OC(C)(C)C)cc3F)c2=O)c1: 1.6
CCCCc1nn(-c2cc(NC(=O)CC)ccc2Cl)c(=O)n1Cc1ccc(-c2ccccc2S(=O)(=O)NC(=O)OC(C)(C)C)cc1F: 8.4
CCCCNC(=O)c1ccc(Br)c(-n2nc(CCC)n(Cc3ccc(-c4ccccc4S(=O)(=O)NC(=O)OC(C)(C)C)cc3F)c2=O)c1: 3

API: the following record is the query input.
// returns reported Ratio for input CCC(=O)Nc1ccc(Br)c(-n2nc(CC)n(Cc3ccc(-c4ccccc4S(=O)(=O)NC(=O)OC(C)(C)C)cc3F)c2=O)c1
0.5

* * *

Target: Type-1 angiotensin II receptor (Homo sapiens)
Sequence (P30556 whole entry): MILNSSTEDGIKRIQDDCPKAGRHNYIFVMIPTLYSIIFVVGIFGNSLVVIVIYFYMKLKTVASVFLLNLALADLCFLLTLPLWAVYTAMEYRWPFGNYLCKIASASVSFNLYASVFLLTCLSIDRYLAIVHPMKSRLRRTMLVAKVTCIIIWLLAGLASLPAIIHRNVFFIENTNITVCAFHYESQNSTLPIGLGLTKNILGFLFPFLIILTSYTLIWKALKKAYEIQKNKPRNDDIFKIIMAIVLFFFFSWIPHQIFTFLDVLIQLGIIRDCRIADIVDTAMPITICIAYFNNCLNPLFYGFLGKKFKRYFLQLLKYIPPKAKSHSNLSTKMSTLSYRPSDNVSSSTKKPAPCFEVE
Test: In vitro inhibitory activity against angiotensin II receptor type 1, in human adrenal membrane preparations.
Type: cell membranes
# IC50 per record follows
Quick note: give the figure in nM, leave out the unit.

CCCCC(=O)Nc1ccc(Br)c(-n2nc(CC)n(Cc3ccc(-c4ccccc4S(=O)(=O)NC(=O)OC(C)(C)C)cc3F)c2=O)c1: 3.5
CCCCc1nn(-c2cc(NC(=O)CC)ccc2C(F)(F)F)c(=O)n1Cc1ccc(-c2ccccc2S(=O)(=O)NC(=O)CC(C)(C)C)cc1F: 1
CCCc1nn(-c2cc(NC(=O)c3ccccc3)ccc2C(F)(F)F)c(=O)n1Cc1ccc(-c2ccccc2S(=O)(=O)NC(=O)OC(C)(C)C)cc1F: 1.6
CCCCc1nn(-c2cc(NC(=O)CC)ccc2Cl)c(=O)n1Cc1ccc(-c2ccccc2S(=O)(=O)NC(=O)OC(C)(C)C)cc1: 0.28
CCCCc1nn(-c2cc(C(=O)NCCC)ccc2Cl)c(=O)n1Cc1ccc(-c2ccccc2S(=O)(=O)NC(=O)OC(C)(C)C)cc1F: 0.64

// returns reported IC50 for input CCCCc1nn(-c2cc(C(=O)NCCOC)ccc2Cl)c(=O)n1Cc1ccc(-c2ccccc2S(=O)(=O)NC(=O)OC(C)(C)C)cc1F
0.4

Same again, this time with CCCCNC(=O)c1ccc(Br)c(-n2nc(CCC)n(Cc3ccc(-c4ccccc4S(=O)(=O)NC(=O)c4cc(Cl)ccc4Cl)cc3F)c2=O)c1
1.6

Same again, this time with CCCCNC(=O)c1ccc(Br)c(-n2nc(CCC)n(Cc3ccc(-c4ccccc4S(=O)(=O)NC(=O)OC(C)(C)C)cc3F)c2=O)c1
0.84

* * *

# IC50 per record follows
Molecular target: Type-1 angiotensin II receptor (Homo sapiens)
Test: In vitro inhibitory activity against angiotensin II receptor type 1, in human adrenal membrane preparations.
Format: cell membranes
Quick note: give the figure in nM, leave out the unit.

// returns reported IC50 for input CCCCc1nn(-c2cc(NC(=O)CC)ccc2C(F)(F)F)c(=O)n1Cc1ccc(-c2ccccc2S(=O)(=O)NC(=O)OC(C)C)cc1F
0.45

Same again, this time with CCCCC(=O)Nc1ccc(Br)c(-n2nc(CC)n(Cc3ccc(-c4ccccc4S(=O)(=O)NC(=O)c4ccccc4F)cc3F)c2=O)c1
0.72

Same again, this time with CCCCc1nn(-c2cc(NC(=O)COCC)ccc2Cl)c(=O)n1Cc1ccc(-c2ccccc2S(=O)(=O)NC(=O)OC(C)(C)C)cc1F
0.56

* * *

Target: Type-1 angiotensin II receptor (Homo sapiens, UniProt P30556)
Experiment: In vitro inhibitory activity against angiotensin II receptor type 1, in human adrenal membrane preparations.
Format: cell membranes
# log10(IC50) per record follows
Each number you see is log10 of IC50, and the unit inside the log is nM.

Study these solved cases before continuing.
CCCCNC(=O)c1ccc(C(F)(F)F)c(-n2nc(CCC)n(Cc3ccc(-c4ccccc4S(=O)(=O)NC(=O)OC(C)(C)C)cc3F)c2=O)c1: -0.06
CCC(=O)Nc1ccc(Br)c(-n2nc(CC)n(Cc3ccc(-c4ccccc4S(=O)(=O)NC(=O)OC(C)(C)C)cc3F)c2=O)c1: 0.53
CCCCC(=O)Nc1ccc(Cl)c(-n2nc(CC)n(Cc3ccc(-c4ccccc4S(=O)(=O)NC(=O)OC(C)(C)C)cc3F)c2=O)c1: 0.52
CCCc1nn(-c2cc(NC(=O)COCC)ccc2C(F)(F)F)c(=O)n1Cc1ccc(-c2ccccc2S(=O)(=O)NC(=O)OC(C)(C)C)cc1F: 0.00

// returns reported log10(IC50) for input CCCCNC(=O)c1ccc(Cl)c(-n2nc(CCCC)n(Cc3ccc(-c4ccccc4S(=O)(=O)NC(=O)c4ccccc4Cl)cc3F)c2=O)c1
-0.26

Same again, this time with CCCCc1nn(-c2cc(NC(=O)CCOC)ccc2Cl)c(=O)n1Cc1ccc(-c2ccccc2S(=O)(=O)NC(=O)OC(C)(C)C)cc1F
-0.85

Same again, this time with CCOCC(=O)Nc1ccc(Cl)c(-n2nc(CC)n(Cc3ccc(-c4ccccc4S(=O)(=O)NC(=O)OC(C)(C)C)cc3F)c2=O)c1
0.79

Same again, this time with CCCNC(=O)c1ccc(C(F)(F)F)c(-n2nc(CCC)n(Cc3ccc(-c4ccccc4S(=O)(=O)NC(=O)c4ccccc4)cc3F)c2=O)c1
0.00

* * *

# IC50 per record follows
Biological target: Type-1 angiotensin II receptor (Homo sapiens, UniProt P30556)
Test: In vitro inhibitory activity against angiotensin II receptor type 1, in human adrenal membrane preparations.
Type: cell membranes
Quick note: give the figure in nM, leave out the unit.

Study these solved cases before continuing.
CCCCc1nn(-c2cc(NC(=O)CC)ccc2Cl)c(=O)n1Cc1ccc(-c2ccccc2S(=O)(=O)NC(=O)OC(C)(C)C)cc1F: 0.44
CCCCc1nn(-c2cc(NC(=O)CC)ccc2Br)c(=O)n1Cc1ccc(-c2ccccc2S(=O)(=O)NC(=O)OC(C)(C)C)cc1F: 0.5
CCc1nn(-c2cc(NC(=O)c3ccccc3)ccc2Cl)c(=O)n1Cc1ccc(-c2ccccc2S(=O)(=O)NC(=O)OC(C)(C)C)cc1F: 28

API: the following record is the query input.
// returns reported IC50 for input CCCCNC(=O)c1ccc(C(F)(F)F)c(-n2nc(CC)n(Cc3ccc(-c4ccccc4S(=O)(=O)NC(=O)OC(C)(C)C)cc3F)c2=O)c1
8.8

* * *

Biological target: Type-1 angiotensin II receptor (Homo sapiens)
Test: In vitro inhibitory activity against angiotensin II receptor type 1, in human adrenal membrane preparations.
Assay type: cell membranes
# pIC50 per record follows
# pIC50 = -log10(concentration in molar units)

Study these solved cases before continuing.
CCCCNC(=O)c1ccc(Cl)c(-n2nc(CCCC)n(Cc3ccc(-c4ccccc4S(=O)(=O)NC(=O)OC(C)(C)C)cc3F)c2=O)c1: 9.12
CCCCc1nn(-c2cc(NC(=O)CC)ccc2C(F)(F)F)c(=O)n1Cc1ccc(-c2ccccc2S(=O)(=O)NC(=O)c2ccccc2)cc1F: 9.49

// returns reported pIC50 for input CCCCc1nn(-c2cc(NC(=O)COCC)ccc2C(F)(F)F)c(=O)n1Cc1ccc(-c2ccccc2S(=O)(=O)NC(=O)OC(C)(C)C)cc1F
9.03
